Catalogue of molecules with associated GI50
# System: ACHN
# Test Summary: NCI tumour cell line growth inhibition, 48 h
Activity calls are given as the source filed them. Cut-off read from the data, not from the text of the source: active = GI50 up to about 1.1 µM and inactive = higher.

For ACHN, provide GI50 of N=S(c1ccccc1[N+](=O)[O-])c1ccccc1[N+](=O)[O-] please.
1.77 µM (inactive)

And COC(=O)c1ccccc1/C=C1\Cc2c(C)cc(C)cc2C1=O ?
> 100 µM (inactive)

And Cn1cnc([N+](=O)[O-])c1Sc1nc2cc([N+](=O)[O-])ccc2[nH]1 ?
36.5 µM (inactive)

And CCCCC/C=C\C=C1\C(=O)C=C[C@@H]1C/C=C\CCCC(=O)O ?
2.72 µM (inactive)

###

# Tested on: CCRF-CEM
# Test Summary: NCI tumour cell line growth inhibition, 48 h
Active and inactive are the calls of the source. No stated cut-off is given here; in the data, active = GI50 up to about 1.1 µM and inactive = higher.
The reply should name one outcome from true (1) for active, false (0) for inactive

// below: answered compounds
Compound	Experimental Target	Class Name
O=C(O)Cc1ccc2nc(COC(=O)c3ccccc3)sc2c1	CCRF-CEM	true (1)
COc1ccc(NC2Oc3cc4c(cc3C(c3cccc(OC)c3OC)C2C)OCO4)cc1 (configuration not stated)	CCRF-CEM	false (0)
CN(CCO)c1nc(=O)c2c([nH]1)CCC2	CCRF-CEM	false (0)
CCOc1cc2c(NCCCN(CCO)CCO)ncnc2c(OCC)c1OCC	CCRF-CEM	false (0)
COc1cc(/C=C/C(=O)Oc2ccc(NC(C)=O)cc2)ccc1C(=O)OCc1ccccc1	CCRF-CEM	false (0)
C(=N\c1ccc2c(c1)Cc1ccccc1-2)/c1ccccn1	CCRF-CEM	false (0)
Cc1ccccc1N(C)S(=O)(=O)c1ccccc1[N+](=O)[O-]	CCRF-CEM	false (0)
O=C1NC(=O)C(CCC(=O)c2cccc3ccccc23)C(=O)N1	CCRF-CEM	false (0)

Which result was noted for this compound in the test: O=c1[nH]cc(NCCCl)c(=O)[nH]1
false (0)

And COc1cc2oc(=O)cc(C)c2c(OC)c1OC(C)=O ?
false (0)

And O=C1CCC(=O)c2ccccc2N1 ?
false (0)

And O=C1c2sc(-c3ccc(Cl)cc3)cc2-n2cccc21 ?
false (0)

###

# System: KM12
# Test Summary: NCI tumour cell line growth inhibition, 48 h
The source made the active and inactive calls. No stated cut-off is given here; in the data, active = GI50 up to about 1.1 µM and inactive = higher.
The reply should name one outcome from class 1 (active), class 0 (inactive)

// below: answered molecules
Molecule	Class Name
CCCCC1=CSC(c2ccccc2)=C(c2ccccc2)S1	class 0
C#CCCCC(=C)C[C@@H]1OC(=O)[C@H](C)[C@@H]1O	class 0

Which result was noted for this molecule in the test: COc1ccccc1NCC(=O)Nn1c(C)nc2ccc(S(=O)(=O)Nc3ccccc3OC)cc2c1=O
class 0

And COC(=O)C(C(=O)C(=O)Nc1ccc([N+](=O)[O-])cc1)c1nc2ccc([N+](=O)[O-])cc2nc1O (stereo unspecified) ?
class 0

And Cn1c(=O)c2c(nc(N/N=C3/SCC(=O)N3Cc3ccccc3)n2C)n(C)c1=O ?
class 0

And Cc1cc(C)c(N[S+]([O-])c2cccc([N+](=O)[O-])c2)c(C)c1 (stereo unspecified) ?
class 0

And Cc1ccc(S(=O)(=O)NC(=O)Nc2nc(Cl)cc(Cl)n2)cc1 ?
class 0

And CCC/C(Cl)=N/OC(=O)Nc1cccc(F)c1 ?
class 0

And Cc1cccc2c(N)c3cccc(C(=O)NCC[N+](C)(C)Cc4ccccc4[N+](=O)[O-])c3nc12 ?
class 0

And CCCCCCCCCCCCCCCCOCC(O)CO (stereo unspecified) ?
class 0
